tested on: BV-2; test: Antiinflammatory activity in mouse BV2 cells assessed as inhibition of LPS-induced iNOS-dependent nitrite production after 24 hrs by Griess method; type: functional, cell-based; settings: Mus musculus, BV-2, 24 h; read-out: IC50
pIC50: −log10 of the molar value.
MEASURED_PARAMETER: pIC50

COMPOUND	OBSERVED_MEASUREMENT
C[C@H](/C=C/[C@H](C)[C@H](C)CO)[C@H]1CC[C@H]2C3=CC[C@H]4CC(=O)CC[C@]4(C)[C@H]3CC[C@]12C	4.90
C=C(CC[C@@H](C)[C@H]1CC[C@H]2C3=C(C[C@H](O)[C@]12C)[C@@]1(C)CC[C@@H](O)[C@@H](C)[C@@H]1CC3=O)C(C)C(=O)OC (stereo partly drawn) [METHYL ANTCINATE H]	5.60
C=C(CC[C@@H](C)[C@H]1CC[C@H]2C3=C(C(=O)C[C@]12C)[C@@]1(C)CCC(=O)[C@@H](C)[C@@H]1C[C@@H]3O)C(C)C(=O)OC (stereo partly drawn)	5.60
C=C(CC[C@@H](C)[C@H]1CC[C@H]2C3=C(C(=O)C[C@]12C)[C@@]1(C)CC[C@@H](O)[C@@H](C)[C@@H]1CC3=O)C(C)C(=O)O (stereo partly drawn)	5.02
CC(C)[C@@H](C)/C=C/[C@@H](C)[C@H]1CC[C@@H]2[C@]1(C)CC[C@H]1[C@]23C=C[C@]2(C[C@@H](O)CC[C@]12C)OO3 [ERGOSTEROL PEROXIDE]	5.20
C=C(CC[C@@H](C)[C@H]1CC[C@H]2C3=C(C(=O)C[C@]12C)[C@@]1(C)CC[C@@H](O)[C@@H](C)[C@@H]1C[C@@H]3O)C(C)C(=O)O (stereo partly drawn)	4.80
C=C(CC[C@@H](C)[C@H]1CC[C@@H]2C3=C(C(=O)C[C@@]21C)[C@@]1(C)CCC(=O)[C@@H](C)[C@@H]1CC3)C(C)C(=O)OC (stereo partly drawn)	5.80
CC(C)[C@@H](C)/C=C/[C@@H](C)[C@H]1CC[C@H]2C3=CC=C4C[C@@H](O)CC[C@]4(C)[C@H]3CC[C@]12C	4.51
C=C(CC[C@@H](C)[C@H]1CC[C@H]2C3=C(C(=O)C[C@]12C)[C@@]1(C)CCC(=O)[C@@H](C)[C@@H]1CC3=O)C(C)C(=O)OC (stereo partly drawn)	6.22
C=C(CC[C@@H](C)[C@H]1CC[C@H]2C3=C(C(=O)C[C@]12C)[C@@]1(C)CCC(=O)[C@@H](C)[C@@H]1CC3=O)C(C)C(=O)O (stereo partly drawn)	5.44
C=C(CC[C@@H](C)[C@H]1CC[C@H]2C3=C(C(=O)C[C@]12C)[C@@]1(C)CCC(=O)[C@@H](C)[C@@H]1C[C@@H]3O)C(C)C(=O)O (stereo partly drawn)	5.38
C=C(CC[C@@H](C)[C@H]1CC[C@H]2C3=C(C(=O)[C@H](O)[C@]12C)[C@@]1(C)CC[C@@H](O)[C@@H](C)[C@@H]1CC3=O)C(C)C(=O)O (stereo partly drawn)	4.79
C=C(CC[C@@H](C)[C@H]1CC[C@H]2C3=C(C(=O)C[C@]12C)[C@@]1(C)CCC(=O)[C@@H](C)[C@@H]1CC3)C(C)C(=O)O (stereo partly drawn)	5.39

Every entry's value here was drawn from ChEMBL document CHEMBL1641397.
